For each record, write down the corresponding drug sensitivity score.
tested on: JHOS2; experiment: drug sensitivity score (DSS) from 5-point dose-response viability curve (DSS (area-under-curve based score)); higher = more sensitive (stronger growth inhibition or killing); extreme values may be limits of the assay; conditions: exposure time: 72 h; concentration range: 5 concentrations over 10,000-fold range
# print the numeric value only

Determine its reported drug sensitivity score: "O=C(c1ccc(F)c(F)c1Nc1ccc(I)cc1F)N1CC(O)([C@@H]2CCCCN2)C1" 4

Quick one: give measured drug sensitivity score for "Cn1nccc1Nc1nccc(-c2ccn([C@H](CO)c3ccc(Cl)c(F)c3)c(=O)c2)n1" 3.7

Indicate the recorded drug sensitivity score value for this molecule: CCN(CC)CCCC(C)Nc1c2ccc(Cl)cc2nc2ccc(OC)cc12 (centres undefined) 10.5

Give the reported value of drug sensitivity score for this record: "C[C@@H](Nc1cc(F)cc(F)c1)c1cc(C(=O)N(C)C)cc2c(=O)cc(N3CCOCC3)oc12" 0.8

----------
system: HOSE2C; experiment: drug sensitivity score (DSS) from 5-point dose-response viability curve (DSS (area-under-curve based score)); higher = more sensitive (stronger growth inhibition or killing); extreme values may be limits of the assay; conditions: exposure time: 72 h; concentration range: 5 concentrations over 10,000-fold range
attribute_measured: drug sensitivity score
Would you mind answering with just the numeric figure?

Consider the molecule "CCc1cc2c(cc1N1CCC(N3CCOCC3)CC1)C(C)(C)c1[nH]c3cc(C#N)ccc3c1C2=O" and give its recorded drug sensitivity score. 0

Report drug sensitivity score, nothing else, for this molecule: "Cn1cnc2c(F)c(Nc3ccc(Br)cc3Cl)c(C(=O)NOCCO)cc21" 0

Report drug sensitivity score for "CN1C(=O)N[C@H](Cc2c[nH]c3c(Cl)cccc23)C1=O" 0

Entry "Nc1ncnc2c1nc(Cl)n2[C@@H]1O[C@H](CO)[C@@H](O)[C@H]1O" needs its drug sensitivity score filled in; supply it. 3.5

Find the measured drug sensitivity score of "Nc1cc(COc2c(Cl)cc(C[C@H](N)C(=O)O)cc2Cl)c2oc(-c3ccccc3)nc2c1" and report it. 0

# return recorded drug sensitivity score for input CCN(CC)CCCC(C)Nc1c2ccc(Cl)cc2nc2ccc(OC)cc12 (centres undefined) 8.2

Please look at this molecule and report its drug sensitivity score: "O=C(Nc1cccc(NC(=O)c2cccc(O)c2O)c1)c1cccc(O)c1O" 10.5

Answer with the recorded drug sensitivity score for the molecule listed here: "Cc1cc(Nc2cc(CN3CCOCC3)c3nc(C)c(Cc4ccc(Cl)cc4F)n3n2)n[nH]1" 8.9

Identify drug sensitivity score associated with the molecule "CO[C@H]1C[C@@H]2CC[C@@H](C)[C@@](O)(O2)C(=O)C(=O)N2CCCC[C@H]2C(=O)O[C@H]([C@H](C)C[C@@H]2CC[C@@H](OP(C)(C)=O)[C@H](OC)C2)CC(=O)[C@H](C)/C=C(\C)[C@@H](O)[C@@H](OC)C(=O)[C@H](C)C[C@H](C)/C=C/C=C/C=C/1C" 1

// fetch drug sensitivity score given entry "C=CC(=O)Nc1cc(Nc2nccc(-c3cn(C)c4ccccc34)n2)c(OC)cc1N(C)CCN(C)C" 0.9

Return drug sensitivity score for the following molecule: "C[C@@H](C(=O)O)c1ccc(-c2ccccc2)c(F)c1" 0

Kindly indicate its recorded drug sensitivity score. Item: "CCC/C=C/C=C/C(=O)O[C@H]1/C(=C/C(=O)OC)C[C@H]2C[C@H]([C@@H](C)O)OC(=O)C[C@H](O)C[C@@H]3C[C@H](OC(C)=O)C(C)(C)[C@](O)(C[C@@H]4C/C(=C/C(=O)OC)C[C@H](/C=C/C(C)(C)[C@]1(O)O2)O4)O3" 1.6

Assign drug sensitivity score to the following record: "O=C(c1ccc(OCCN2CCCCC2)cc1)c1c(-c2ccc(O)cc2)sc2cc(O)ccc12" 0

Query drug sensitivity score for Cc1sc2c(c1C)C(c1ccc(Cl)cc1)=N[C@@H](CC(=O)Nc1ccc(OCCOCCOCCOCCNc3cccc4c3C(=O)N(C3CCC(=O)NC3=O)C4=O)cc1)c1nnc(C)n1-2 (some centres undefined) 7.9

----------
system: HOSE1C; test: drug sensitivity score (DSS) from 5-point dose-response viability curve (DSS (area-under-curve based score)); higher = more sensitive (stronger growth inhibition or killing); extreme values may be limits of the assay; conditions: exposure time: 72 h; concentration range: 5 concentrations over 10,000-fold range
attribute_measured: drug sensitivity score
Enter a number only.

Please report the measured drug sensitivity score for CNC(=O)c1ccccc1Nc1cc(Nc2ccc(N3CCOCC3)cc2OC)ncc1C(F)(F)F [VS-4718] 3.6

Supply drug sensitivity score value. Item: C=C1C[C@@H]2[C@H](CC[C@]3(C)C(=O)CC[C@@H]23)[C@@]2(C)C=CC(=O)C=C12 [Exemestane] 0

Give the reported value of drug sensitivity score for this record: COc1cc2c(N3CCN(C(=O)Nc4ccc(OC(C)C)cc4)CC3)ncnc2cc1OCCCN1CCCCC1 [Tandutinib] 0

Answer with the recorded drug sensitivity score for the molecule listed here: COc1c(OCCCN2CCOCC2)ccc2c1N=C(NC(=O)c1cnc(N)nc1)N1CCN=C21 [Copanlisib] 4.8

Name the recorded drug sensitivity score of the item OC[C@H]1O[C@@H](n2cnc3c2N=CNC[C@H]3O)C[C@@H]1O [Pentostatin] in your answer. 0

In one line, give reported drug sensitivity score of the entry CC[C@H](Nc1ncnc2[nH]cnc12)c1nc2cccc(F)c2c(=O)n1-c1ccccc1 [Idelalisib] . 0.1

Complete the entry with drug sensitivity score for CC[C@@H](C(=O)[C@@H](C)[C@@H](O)[C@H](C)[C@@H]1O[C@@H]([C@@H](CC)C(=O)O)CC[C@@H]1C)[C@H]1O[C@]2(C=C[C@@H](O)[C@]3(CC[C@@](C)([C@H]4CC[C@](O)(CC)[C@H](C)O4)O3)O2)[C@H](C)C[C@@H]1C [Salinomycin] 21.2

----------
Would you mind telling me the reported drug sensitivity score of each entry?
system: Kuramochi; test: drug sensitivity score (DSS) from 5-point dose-response viability curve (DSS (area-under-curve based score)); higher = more sensitive (stronger growth inhibition or killing); extreme values may be limits of the assay; details: exposure time: 72 h; concentration range: 5 concentrations over 10,000-fold range
Kindly provide the number alone.

Provide one value: measured drug sensitivity score of "CCn1c(C(=O)N(C2CC2)C2CC2)cc2c3c(ncn3C)c(Nc3cc(C)n(C)n3)nc21" 2.6

Complete the entry with drug sensitivity score for COc1cccc(-c2ccc(NC(=O)C3=C(C(=O)O)CCC3)c(F)c2)c1 [Vidofludimus] 0

Consider the compound COc1cc(Nc2ncc(F)c(Nc3ccc4c(n3)NC(=O)C(C)(C)O4)n2)cc(OC)c1OC [Tamatinib] and give its recorded drug sensitivity score. 1.5

Entry "COc1cc2ncnc(Oc3cccc(NC(=O)Nc4cc(C(C)(C)C(F)(F)F)on4)c3)c2cc1OC" needs its drug sensitivity score filled in; supply it. 0.4

Look up and report measured drug sensitivity score for this entry: CC[C@H](NC(=O)[C@H](C)NC)C(=O)N1C[C@@H](O)C[C@H]1Cc1c(-c2[nH]c3cc(F)ccc3c2C[C@@H]2C[C@H](O)CN2C(=O)[C@H](CC)NC(=O)[C@H](C)NC)[nH]c2cc(F)ccc12 [Birinapant] 0.4

Entry CN(C)C1CCN(C(=O)c2ccc(NC(=O)Nc3ccc(-c4nc(N5CCOCC5)nc(N5CCOCC5)n4)cc3)cc2)CC1 [Gedatolisib] needs its drug sensitivity score filled in; supply it. 11.4

Return drug sensitivity score (reported value) for this compound: "C[C@@H](Oc1cc(-n2cnc3ccc(CN4CCN(C)CC4)cc32)sc1C(N)=O)c1ccccc1C(F)(F)F" 7.7

Consider the compound CC(C)C[C@H](NC(=O)[C@H](CCc1ccccc1)NC(=O)CN1CCOCC1)C(=O)N[C@@H](Cc1ccccc1)C(=O)N[C@@H](CC(C)C)C(=O)[C@@]1(C)CO1 [Carfilzomib] and give its recorded drug sensitivity score. 12.4

Dear colleague, please send me the reported drug sensitivity score for CC1(C)CCC(CN2CCN(c3ccc(C(=O)NS(=O)(=O)c4ccc(NCC5CCOCC5)c([N+](=O)[O-])c4)c(Oc4cnc5[nH]ccc5c4)c3)CC2)=C(c2ccc(Cl)cc2)C1 [Venetoclax] when you can. 0

Identify measured drug sensitivity score corresponding to O=C(Nc1cccc(Nc2ncc(Br)c(NCCc3cnc[nH]3)n2)c1)N1CCCC1 [BX-912] 1.4

Respond only with drug sensitivity score recorded for S=C(NCc1ccc2c(c1)OCO2)N1CCN(c2ncnc3c2oc2ccccc23)CC1 [Amuvatinib] 0.2

Tell me drug sensitivity score reported for COC(=O)C[C@](O)(CCCC(C)(C)O)C(=O)O[C@@H]1C(OC)=C[C@]23CCCN2CCc2cc4c(cc2[C@H]13)OCO4 [Omacetaxine] 18.3

State, in one line, measured drug sensitivity score of CN1C(=O)N[C@H](Cc2c[nH]c3c(Cl)cccc23)C1=O [Necrostatin 2] 0

Item Cn1nccc1Nc1nccc(-c2ccn([C@H](CO)c3ccc(Cl)c(F)c3)c(=O)c2)n1 [Ravoxertinib] : provide drug sensitivity score 4.8

Supply measured drug sensitivity score of CCc1nc(C(N)=O)c(Nc2ccc(N3CCC(N4CCN(C)CC4)CC3)c(OC)c2)nc1NC1CCOCC1 [Gilteritinib] in your reply. 0.7

Complete the entry with drug sensitivity score for O=C(O)C1(C(=O)O)CCC1.[NH2-].[NH2-].[Pt+2] [Carboplatin] 4.9

// Input: O=C(O)CC[C@H]1CC[C@@](c2cc(F)ccc2F)(S(=O)(=O)c2ccc(Cl)cc2)CC1 [MK-0752] . Output its drug sensitivity score only. 0

For the compound "O=C(NC[C@H](O)CN1CCc2ccccc2C1)c1cc(NC2COC2)ncn1" , give its reported drug sensitivity score. 0.4

Entry Cc1ccc(Nc2nccc(N(C)c3ccc4c(C)n(C)nc4c3)n2)cc1S(N)(=O)=O [Pazopanib] needs its drug sensitivity score filled in; supply it. 0

Answer with the recorded drug sensitivity score of CC(C)Nc1cc(-c2c[nH]c(C(=O)N[C@H](CO)c3cccc(Cl)c3)c2)c(Cl)cn1 [Ulixertinib] only. 7.7

For the compound CNC(=O)c1cc(COc2nnc(Nc3ccc(Cl)cc3)c3ccoc23)ccn1 [Telatinib] , give its reported drug sensitivity score. 0.1

Look up drug sensitivity score of Cn1cnc2c(F)c(Nc3ccc(Br)cc3Cl)c(C(=O)NOCCO)cc21 [Selumetinib] and report it. 5.4

Tell us which drug sensitivity score value is on record for Cc1cc(OCc2nnc(SC3CCCC3)n2-c2cccnc2)ccc1-c1ccc(S(C)(=O)=O)cc1 [NMS-873] 6.8

Let me know recorded drug sensitivity score for O=C(NOCCO)c1ccc2cncn2c1Nc1ccc(I)cc1F [GDC-0623] , thanks. 0.1

Provide only the value of recorded drug sensitivity score for CCNC(=O)CCC/C=C\C[C@@H]1[C@@H](/C=C/[C@@H](O)CCc2ccccc2)[C@H](O)C[C@@H]1O [Bimatoprost] 0

Name the recorded drug sensitivity score of the compound listed here: COc1cc(Nc2ncc(F)c(Nc3ccc4c(n3)N(COP(=O)(O)O)C(=O)C(C)(C)O4)n2)cc(OC)c1OC [Fostamatinib] 2.4

Return drug sensitivity score (reported value) for this compound: "Cc1ncc(Cl)cc1NCc1ccc(C(=O)N[C@@H](CC2CCCC2)C(=O)NC2CC2)s1" 0.4

Read the entry Cc1noc2c1-c1ccccc1C(c1ccc(Cl)cc1)=N[C@H]2CC(N)=O [CPI-0610] and write its reported drug sensitivity score. 13

Quote drug sensitivity score reported for CC(C)[C@H]1C(=O)N[C@@H](CCCNC(=N)N)C(=O)NCC(=O)N[C@@H](CC(=O)O)C(=O)N[C@H](Cc2ccccc2)C(=O)N1C [Cilengitide] please. 5.4

Return drug sensitivity score for the following compound: COc1ccc(-c2ccc3c(N4CCOC[C@@H]4C)nc(N4CCOC[C@@H]4C)nc3n2)cc1CO [AZD8055] 15.6

Respond only with drug sensitivity score recorded for O=C(Nc1cc(Oc2cc(F)c(NC(=O)C3(C(=O)Nc4ccc(F)cc4)CC3)cc2F)ccn1)C1CC1 [Altiratinib] 4.3

Quickly give me recorded drug sensitivity score for O=C(Nc1nc2cccc(-c3ccc(CN4CCS(=O)(=O)CC4)cc3)n2n1)C1CC1 [Filgotinib] 5.1
